Where do the numbers come from? From PubChem BioAssay (NCI).

Test Description: NCI Yeast Anticancer Drug Screen. Data for the mlh1 rad18 strain (AID 175)
Recorded Conditions: S. cerevisiae mlh1 rad18 strain growth inhibition; at 50.0 µM; active compounds read high
Compounds without any hit were thinned out: in the full panel of roughly 79,000, 15% have a hit.
Quantity Kind: growth inhibition (%)
Answers are plain numbers, in %.

Given CC1=NN(C(=O)c2cccnc2)C(=O)C1N=Nc1ccc(S(=O)(=O)N=C(N)N)cc1 (stereo unspecified) , state its recorded growth inhibition.
-21.9

Give the measured growth inhibition of CCOC(=O)C(CCC(C)=O)C(=O)OCC .
-19.1

Reported growth inhibition for Brc1ccc(-c2oc3c4ccccc4c4ccccc4c3c2-c2ccc(Br)cc2)cc1 : what is it?
15.2

Hey, quick one: what's growth inhibition for each of these?
1. Cn1ncc2c(=S)[nH]c(=O)[nH]c21
2. O=C(CN1CCN(c2ccccc2)CC1)N1CCc2c([nH]c3ccccc23)C1c1cccnc1 (stereo unspecified)
3. CCN(CC)C(=O)CC(C)(C)O

[-0.1, -21.6, -1.6]

---

Field: growth inhibition. Provide a value for each of the compounds that follow.
Test Description: NCI Yeast Anticancer Drug Screen. Data for the mlh1 rad18 strain (AID 175)
Recorded Conditions: S. cerevisiae mlh1 rad18 strain growth inhibition; at 50.0 µM; active compounds read high
About 79,000 compounds went through this panel and 15% of them were active in at least one assay; those are over-represented in the sample as a whole.
Answers are plain numbers, in %.

Each compound below has a reported value. Please supply its growth inhibition.
1. Nc1ccc2[nH]c(=O)c(=O)[nH]c2c1
2. Cc1cccc(C2=N/C(=C\c3ccc4c(c3)OC(O)O4)C(=O)O2)c1 (configuration not stated)
3. CCN(CC)Cc1cc(C(C)(C)CC)cc(-c2ccccc2)c1O
4. COc1c(OC2OC(CO)C(O)C(O)C2O)cc2c(c1OC)-c1ccc(OC)c(=O)cc1C(NC(C)=O)CC2 (configuration not stated)
5. O=CNc1cccc2c(=O)[nH][nH]c(=O)c12
6. Cn1c(-c2ccc(-c3cc(-c4cccs4)c(-c4cccs4)n3C)cc2)cc(-c2cccs2)c1-c1cccs1
7. CC(=O)OC12C3C4C1C1C2C3C41OC(C)=O (configuration not stated)

14.8
-16.4
-4.1
20.4
-39.1
17.8
-7.5

List reported growth inhibition for each of these compounds:
1. NC1CC(=O)c2sccc21 (configuration not stated)
2. C=C(C)C(O)CC(C)C (configuration not stated)
3. CCCCCCCC/C(C=O)=C\c1ccc(C)cc1

1. 1.25
2. 0.2
3. 62.6

Field: growth inhibition. Fill in for each record below.
1. CCOC(=O)c1ccccc1O
2. COc1cc(CC2c3cc(OC)c(OC)cc3CC[N+]2(C)C)c(Oc2cc(CC3c4cc(OC)c(OC)cc4CC[N+]3(C)C)ccc2OC)cc1OC (configuration not stated)

1. 9.5
2. 28.6

---

Can you tell me growth inhibition for the items I'm about to list?
Test Description: NCI Yeast Anticancer Drug Screen. Data for the mlh1 rad18 strain (AID 175)
Recorded Conditions: S. cerevisiae mlh1 rad18 strain growth inhibition; at 50.0 µM; active compounds read high
The panel holds about 79,000 compounds, 15% with a hit somewhere; the sample as a whole holds those more often.
Numbers only, in %.

Would you please look over these solved cases?
For CN(C)C(=N/O)/C(=N\O)N(C)C , what is its reported growth inhibition?
-0.2

What value of growth inhibition has been reported for the following molecule? CCCCCCNC(CC(N)=O)C(=O)O (stereo not drawn)
-26.2

Please look up its growth inhibition: CC(C)COC(=O)c1ccc(C(C)C)cc1
4.45

Please give the measured growth inhibition for this molecule: CCS1=C2C(=O)CC(C)(C)CC2=Nc2ccccc21 (stereo not drawn)
-31.1

// lookup growth inhibition for CCCCC#CCC#Cc1ccccc1
10.1

Reported growth inhibition for N[C@@H]1c2c(csc2Br)C(=O)[C@@H]1O : what is it?
-14.6

// each listed molecule needs a value for growth inhibition
1. CC(=O)NC(Cc1ccccc1)/C(C)=N\O (stereo not drawn)
2. Cc1cc(S(=O)(=O)Nc2nc(N)nc(N3CCCCC3)n2)c(S)cc1Cl
3. COC(=O)CC12CCCC(C)(CC(=O)N1)C2 (stereo not drawn)
4. CN1C(=O)C=C(C=Nc2ccc(-c3ccccc3)cc2)C2CCCCC21 (stereo not drawn)

1. 4.8
2. 5.35
3. -0.5
4. 6.75

Please report growth inhibition for every entry that follows.
1. CC(Oc1ccc2cc(C(=O)c3ccccc3)c(=O)oc2c1)C(=O)O (stereo not drawn)
2. CS(=O)(=O)OC12CC3CC(CC(C3)C1)C2
3. COC(=O)Cc1nc2ccccc2[nH]c1=O

1: 44.9; 2: 5.55; 3: -5.7

---

Test Description: NCI Yeast Anticancer Drug Screen. Data for the rad50 strain (AID 155);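 also: 0% = growth of vehicle-only cultures of the same strain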
Recorded Conditions: S. cerevisiae rad50 strain growth inhibition; at 50.0 µM; active compounds read high
About 79,000 compounds went through this panel and 15% of them were active in at least one assay; those are over-represented in the sample as a whole. Calls of active or inactive are those of the source. Cut-off read from the data, not from the text of the source: active = growth inhibition above about 70%; inactive = the rest.
Quantity Kind: growth inhibition

Solved entries (count: 10):
Any idea what its growth inhibition is? The compound is CC(O)c1ccc(N=NN(C)C)cc1 (stereo unspecified)
-2.5% (inactive)

growth inhibition for CC1CSC(=S)N1C(=O)N1C(=S)SCC1C (stereo unspecified) ?
-42.4% (inactive)

So what's the measured growth inhibition for this one? COC(=O)NC1=Nc2ccccc2N(C(=O)Oc2ccccc2)S1
7.8% (inactive)

What value of growth inhibition has been reported for the following compound? Nc1ncnc2c1ncn2C(=O)NC12CC3CC(CC(C3)C1)C2
9.75% (inactive)

Field request: growth inhibition | item: COc1nc(N)c(NC(C)=O)c(=O)n1C
3.9% (inactive)

Given the entry CCOc1ccc(CN(CCN2CCCCC2)c2ccccn2)cc1 , report its measured growth inhibition.
26.6% (inactive)

May I ask what growth inhibition has been recorded for COC(=O)C(=O)C(C(=O)C(=O)Nc1cccc([N+](=O)[O-])c1)c1nc2ccc(Cl)cc2[nH]c1=O (stereo unspecified) ?
15% (inactive)

Could you tell me which growth inhibition is on file for CCC1=C(O)C(=O)C(C)(C)C1=O ?
-5.85% (inactive)

Report growth inhibition for N#Cc1ccc(CC(=O)O)cc1 please.
25.2% (inactive)

// query growth inhibition value for entry Cc1ccc2nc(CC(=O)c3ccccc3)c(CC(=O)c3ccccc3)nc2c1
0.7% (inactive)

For each of the items listed, what is its growth inhibition?
1. CC(C)CC(C)N=C1CC2CCC1(C)C2(C)C (stereo unspecified)
2. CC1OCOC1C1OCOCC1OC(=O)c1ccccc1 (stereo unspecified)
3. CCCCNC(=S)N(CCCC)CCCC

1. -32.3% (inactive)
2. -5.6% (inactive)
3. 21.8% (inactive)

Working through the 5 compounds below one at a time, give growth inhibition for each.
1. CC(=O)O/C1=C\CCCCCCCCCC1
2. CCOc1cc2c(cc1O)CC[C@@H]1[C@@H]2CC[C@]2(C)C(OS(=O)OC3CC[C@@H]4[C@H]5CCc6cc(O)c(OCC)cc6[C@@H]5CC[C@@]34C)CC[C@@H]12 (stereo partly specified)
3. CCn1cc(C(=O)O)c(=O)c2ccc(-c3ccncc3)cc21
4. CCOC(=O)C(CN)c1ccccc1 (stereo unspecified)
5. CCCCOCCOC(=O)C(C)O (stereo unspecified)

1: 6.95% (inactive); 2: -12.8% (inactive); 3: 3.35% (inactive); 4: -9.15% (inactive); 5: 18.9% (inactive)

// for each compound below, give its growth inhibition
1. Cc1ccc(C2SC(N)=Nc3c2c(C)nn3C(=O)c2ccccc2O)cc1 (stereo unspecified)
2. O=C(CC1=NC2NN(c3ccccc3)C(=O)C2=C1CC(=O)c1ccc(F)cc1)c1ccc(F)cc1 (stereo unspecified)
3. O=C(CCN1C(=O)c2ccccc2C1=O)c1cnc[nH]1
4. CCC(CC)(Cc1ccccc1)C(=O)O

1: 8.65% (inactive); 2: 40.2% (inactive); 3: 13.8% (inactive); 4: 9.65% (inactive)

---

Test Description: NCI Yeast Anticancer Drug Screen. Data for the cln2 rad14 strain (AID 165);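 also: 0% = growth equal to vehicle treated cultures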
Recorded Conditions: S. cerevisiae cln2 rad14 strain, at 50.0 µM, active compounds read high
This is part of a sample that, as a whole, favours compounds with a hit. Of some 79,000 tested, about 15% had one in any assay.
I'd appreciate it if you could supply growth inhibition values for the items below.
Numbers only, in %.

Take each entry in turn and give its growth inhibition.
1. Cc1ccc(C)c2c1CCc1cc3ccccc3nc1-2
2. O=C1NC(c2ccccc2)(c2ccccc2)C(=O)N1CNc1ccccn1

1: 7.9; 2: 8.95

Give growth inhibition for each listed item.
1. NC(CS)=NCc1ccccc1
2. Cn1c(=S)[nH]c2cc(Cl)c(Cl)cc21
3. CCCCCCCCCCCCCCCCCCC(CO)CO
4. COC(=O)c1cccc(O)c1O

1: -86.6; 2: -21.7; 3: -45; 4: -41.4

Please give the measured growth inhibition for this compound: O=C(O)CNS(=O)(=O)c1ccccc1
-24.6
